Listed here: items and their measured neutralization of SARS-CoV-2 (assay not stated).
- Test Target: SARS-CoV-2 (Wuhan-Hu-1 strain) spike glycoprotein on pseudotyped virus particles (SARS-CoV-2, UniProt P0DTC2 14-1273)
- Procedure Text: cell-based or functional assay

Nb34 (VHH) VHH: DVQLVESGGGLVQAGGSLRLSCAASGFTFSNYVMYWGRQAPGKGREWVSGIDSDGSDTAYASSVKGRFTISRDNAKNTLYLQMNNLKPEDTALYYCVKSKDPYGSPWTRSEFDDYWGQGTQVTVSS : < 150 ng/mL
Nb95 (VHH) VHH: QVQLVESGGGLVQAGGSLRLSCAASGRTFSSYSMGWFRQAQGKEREFVATINGNGRDTYYTNSVKGRFTISRDDATNTVYLQMNSLKPEDTAIYYCAADKDVYYGYTSFPNEYEYWGQGTQVTVSS : < 150 ng/mL
Nb17 (VHH) VHH: HVQLVESGGGLVQAGGSLRLSCAASGSIFSSNAMSWYRQAPGKQRELVASITSGGNADYADSVKGRFTISRDKNTVYPEMSSLKPADTAVYYCHAVGQEASAYAPRAYWGQGTQVTVSS : ≤ 100 ng/mL

stdin: I have this binder here, Nb36 (VHH) VHH: HVQLVESGGGLVQAGGSLTLTCAASGRTFSSETMDMGWFRQAPGKEREFVAADSWNDGSTYYADSVKGRFTISRDSAKNTLYLQMNSLKPEDTAVYYCAAETYSIYEKDDSWGYWGQGTQVTVSS , and I need its recorded neutralization of SARS-CoV-2 (assay not stated).
stdout: ≤ 100 ng/mL

stdin: I have this binder here, Nb105 (VHH) VHH: HVQLVESGGGLVQAGGSLRLSCAVSGRTFSTYGMAWFRQAPGKERDFVATITRSGETTLYADSVKGRFTISRDNAKNTVYLQMNSLKIEDTAVYYCAVRRDSSWGYSRDLFEYDYWGQGTQVTVSS , and I need its recorded neutralization of SARS-CoV-2 (assay not stated).
stdout: < 150 ng/mL

The measurements presented in this section are drawn from patent US20240043505A1.
